Test system: MOLT-4 leukemia
protocol.notes: NCI tumour cell line growth inhibition, 48 h
assay.readout: GI50

Input `CC(=O)O[C@H]1C(=O)[C@@]2(C)[C@H]([C@H](OC(=O)c3ccccc3)[C@]3(O)C[C@H](OC(=O)[C@H](O)[C@@H](NC(=O)c4ccoc4)c4ccccc4)C(C)=C1C3(C)C)[C@]1(OC(C)=O)CO[C@@H]1C[C@@H]2O` , output reported GI50.
42 nM

Input `O=C(O)[C@@H]1CCCN1Cc1cc2cc3c(cc2c2cc(OCc4ccccc4)ccc12)OCO3` , output reported GI50.
30700 nM

Input `COC(=O)N1c2ccc3c(nc(Cc4ccccc4)n3[C@H]3CCC[C@H](C(=O)O)C3)c2CC[C@@H]1C` , output reported GI50.
14300 nM

Input `COc1ccc(NC(=O)c2sc3nc(C)c(C(=O)/C=C/c4ccccc4)cc3c2N)cc1` , output reported GI50.
1430 nM

Input `COc1ccc(C(=O)NCCNc2nccc(-c3c(-c4ccc(F)cc4)nc4sccn34)n2)cc1` , output reported GI50.
6970 nM

Input `Cn1ccnc1C(=O)/C=C/c1ccc(C(=O)Nc2ccccc2F)cc1` , output reported GI50.
2380 nM

Input COc1ccc(C(=O)C2C(C#N)C(C#N)C3C=Cc4ccccc4N32)cc1 (stereo not drawn) , output reported GI50.
2600 nM

Input `Cc1ccncc1N1CCN(c2ccnc(Cl)c2)C1=O` , output reported GI50.
> 100000 nM

---

Tested on: SNB-78 CNS
protocol.notes: NCI tumour cell line growth inhibition, 48 h
Please provide measured TGI for the entries that follow.

Input COC(=O)/C(C#N)=C1\CCC(Nc2cccc(C(F)(F)F)c2)N1C (centres undefined) , output reported TGI.
> 100 µM

Input `CCN(CCCl)CCCCNc1c2ccccc2nc2ccc(OC)cc12` , output reported TGI.
4.07 µM

Input `Cn1ccnc1Cn1cc(-c2cccc(-c3cn[nH]c3)c2)cn1` , output reported TGI.
> 100 µM

Input `Cc1c(C(=N)N)oc2ccccc12` , output reported TGI.
> 100 µM

---

Tested on: UO-31 renal
protocol.notes: NCI tumour cell line growth inhibition, 48 h
Is TGI at least 30 µM? Then condition met. If not, condition not met.

Hello, I need to know if `O=S(=O)(/N=C(\NO)Nc1ccc(Cl)cc1)c1cc2ccccc2o1` has measured TGI not below 30 µM. Thanks!
condition met

Hello, I need to know if `CCN(CCCl)CCCCNc1c2ccccc2nc2ccc(OC)cc12` has measured TGI not below 30 µM. Thanks!
condition not met

Hello, I need to know if `Cn1ncc(NCCn2cnc3c2c(=O)n(C)c(=O)n3C)c(Cl)c1=O` has measured TGI not below 30 µM. Thanks!
condition met

Hello, I need to know if C=C1C[C@H](O)[C@H]2C(C[Se]c3ccccc3)C(=O)O[C@@H]2[C@H]2[C@H](C)C(O)C[C@@H]12 (stereo not given in full) has measured TGI not below 30 µM. Thanks!
condition met

Hello, I need to know if `CC(=O)Oc1cc2c[n+](C)c3c4cc(OC(C)=O)c(OC(C)=O)cc4ccc3c2cc1OC(C)=O` has measured TGI not below 30 µM. Thanks!
condition not met

Hello, I need to know if CC(O)C(C(=O)O)N(CC1(O)OCC(O)C(O)C1O)N=O (stereo not given) has measured TGI not below 30 µM. Thanks!
condition met

Hello, I need to know if O=C1CS/C(=N/S(=O)(=O)c2ccc(N3N=C4c5ccccc5CC4C3c3cccs3)cc2)N(c2ccccc2)C1 (stereo not given) has measured TGI not below 30 µM. Thanks!
condition met

Hello, I need to know if CC(C)(C)OC(=O)CCC1NC(=O)[C@@H]2Cc3c([nH]c4ccccc34)C(C3CCCCC3)N2C1=O (stereo not given in full) has measured TGI not below 30 µM. Thanks!
condition met

Hello, I need to know if `CCCCCCCCCCCCCCNc1nc(C(=O)OCC)ncc1-c1ccc(C(F)(F)F)cc1` has measured TGI not below 30 µM. Thanks!
condition met

Hello, I need to know if Clc1ccc(C2c3ccccc3-c3nc4ccccc4n32)cc1 (stereo not given) has measured TGI not below 30 µM. Thanks!
condition met

Hello, I need to know if `O=S(=O)(Cc1nc2ccccc2s1)c1nc2ccccc2s1` has measured TGI not below 30 µM. Thanks!
condition met

Hello, I need to know if C[N+](C)(C)CC1CCc2ccccc2C1=O (stereo not given) has measured TGI not below 30 µM. Thanks!
condition met

Hello, I need to know if c1ccc2c(c1)Sc1ccccc1N2CC1CN2CCC1CC2 (stereo not given) has measured TGI not below 30 µM. Thanks!
condition not met

Hello, I need to know if `O=C(Nc1ccc(Cl)cc1)Oc1ccc(C(=S)Nc2ccc(Br)cc2)cc1` has measured TGI not below 30 µM. Thanks!
condition met

Hello, I need to know if CCOC(=O)C(C(N)=O)c1nc2cc([N+](=O)[O-])ccc2nc1/C=C(\O)c1ccccc1 (stereo not given) has measured TGI not below 30 µM. Thanks!
condition met

Hello, I need to know if COC(O)C(=O)c1c2c(cc3c1CCC3)CCCC2 (stereo not given) has measured TGI not below 30 µM. Thanks!
condition met

Hello, I need to know if `O=[N+]([O-])[O][Sn]([O][Sn]([O][N+](=O)[O-])([c]1ccccc1)[c]1ccccc1)([c]1ccccc1)[c]1ccccc1` has measured TGI not below 30 µM. Thanks!
condition met

Hello, I need to know if `O=C1C=CC2(C=C1)CCC(=O)O2` has measured TGI not below 30 µM. Thanks!
condition met

Hello, I need to know if `COc1ccc2c(c1)-c1c(c3cc(OC)ccc3n1CCN1CCOCC1)CC2` has measured TGI not below 30 µM. Thanks!
condition met

Hello, I need to know if `CCN1C(Cl)=NS(=O)(=O)c2ccccc21` has measured TGI not below 30 µM. Thanks!
condition met

Hello, I need to know if `C[Si](C)(C)CC(N)=O` has measured TGI not below 30 µM. Thanks!
condition met

Hello, I need to know if `N#CCCN1C/C(=C/c2ccccc2)C(=O)/C(=C/c2ccccc2)C1` has measured TGI not below 30 µM. Thanks!
condition not met

Hello, I need to know if CC1(SCC(N)C(=O)O)CC(=O)NC1=O (stereo not given) has measured TGI not below 30 µM. Thanks!
condition met

Hello, I need to know if `COC(=O)N1c2ccc3c(nc(Cc4ccccc4)n3[C@H]3CCC[C@H](C(=O)O)C3)c2CC[C@@H]1C` has measured TGI not below 30 µM. Thanks!
condition met

Hello, I need to know if `CCOC(=O)/C=C\[C@H]1OC(C)(C)O[C@H]1[C@H](O)[C@H]1COC(C)(C)O1` has measured TGI not below 30 µM. Thanks!
condition met

Hello, I need to know if `Cn1ccnc1C(=O)/C=C/c1ccc(C(=O)Nc2ccccc2F)cc1` has measured TGI not below 30 µM. Thanks!
condition not met

Hello, I need to know if `Cc1ccc2nc3ccccc3c(NCc3ccccc3)c2c1` has measured TGI not below 30 µM. Thanks!
condition not met

Hello, I need to know if `O=c1c2ccccc2sc2nc(CCl)nn12` has measured TGI not below 30 µM. Thanks!
condition not met

Hello, I need to know if COc1cc(C2CC(C)(N3CCCC3)Oc3cc4c(cc32)OCO4)cc(OC)c1OC (stereo not given) has measured TGI not below 30 µM. Thanks!
condition met

Hello, I need to know if `CC(=O)N(C)C=C1C(=O)N(C)C(=O)N(C)C1=O` has measured TGI not below 30 µM. Thanks!
condition met

Hello, I need to know if `CO/N=C(\COc1ccc2c(=O)cc(-c3ccccc3)oc2c1)c1ccc(F)cc1` has measured TGI not below 30 µM. Thanks!
condition met

Hello, I need to know if `O=c1[nH]c2ccccc2nc1CBr` has measured TGI not below 30 µM. Thanks!
condition not met

Hello, I need to know if `O=c1c2sc3ccccc3c2nnn1-c1ccc(F)c(Cl)c1` has measured TGI not below 30 µM. Thanks!
condition met

Hello, I need to know if `Cc1c(C(=N)N)oc2ccccc12` has measured TGI not below 30 µM. Thanks!
condition met

Hello, I need to know if `O=C(N/N=C\c1cc(Cl)ccc1O)c1ccncc1` has measured TGI not below 30 µM. Thanks!
condition met

Hello, I need to know if `CC(C)=NN/C(=N\S(=O)(=O)c1cc2ccccc2s1)Nc1ccc(Cl)cc1` has measured TGI not below 30 µM. Thanks!
condition met

Hello, I need to know if C=CCNC(=O)NNC(O)(C(=O)OCC)C(F)(F)F (stereo not given) has measured TGI not below 30 µM. Thanks!
condition met

Hello, I need to know if `CCCCCc1c(Cl)nc(Cl)nc1Cl` has measured TGI not below 30 µM. Thanks!
condition met

Hello, I need to know if `COc1cc2c(cc1OCCCCOc1cc3nc(C)nc(Cl)c3cc1OC)N=C[C@@H]1CCCN1C2=O` has measured TGI not below 30 µM. Thanks!
condition not met

Hello, I need to know if `C[C@H](NS(=O)(=O)c1ccc(NC(=O)c2ccccc2)cc1)C(=O)O` has measured TGI not below 30 µM. Thanks!
condition met

Hello, I need to know if `Cc1ccc2c3c4c(ccc13)C(C)(C)OC4=C(C(C)C)C2=O` has measured TGI not below 30 µM. Thanks!
condition met

Hello, I need to know if `O=C(/C=C/c1ccc2c(c1)OCO2)NCc1ccco1` has measured TGI not below 30 µM. Thanks!
condition met

Hello, I need to know if CCOC(=O)C1(C(C)=O)OC(=O)c2cnccc21 (stereo not given) has measured TGI not below 30 µM. Thanks!
condition met
